Experiment: yeast display, Sf9 membrane polyspecificity reagent, FACS + sequencing; frameworks hold sequencing errors
Recorded Endpoint: polyreactivity (PSR sort gate)

See these solved cases before continuing.
Chain	Meas Value
QVQLVESGGGLVQAGGSLRLSCAASGNTFRLYGMGWYRQAPGKERELVAAIRSGDRTYYADSVKGRFTISRDNAKNTVYLQMNSLKPEDTAVYYCAARVNLSKLFGYWGQGTQVTVSS	high polyreactivity
QVKLVESGGGLVQAGGSLRLSCAASGSSFTNYAMGWYRQEPRKERELVAAITSVGSTYYADSVKGRFTISRDNAKNTVYLQMNSLKPEDTAVYYCNVVYRDQYNYWGQGTQVTVSS	low polyreactivity
QVQLVESGGCLVQAGGSLRLSCAASGRTFYGNDMGWYSQAPGTERELVAAISSSGGSTYYADSVKGRGTISRDNGKNTVYLQMKSLKPEDTAVYYCNAYWRGFRLSYYEDSYYWGQGTQVTVSS	high polyreactivity
QVQLVESGGGLVQAGGSLRLSCAASGSNFGYNAIGWYRKAPGKEREFVAGISWSGGRTYYADSEKGRFTISRDNAKNTVYLQMNSLKPEDTAVYYCAAPSRPAPRFDYWGQGTQVTVSS	low polyreactivity
QVQLVESVGGLVQAGGSLRLSCAASGSTFEDNAMGWYRQAPGKERELVAAITTGGGSTYYADSVKGRFTISRDNAKNTVYLQINSLKPEDTEVYYCNAEHGWFGLLFIATANEYDYLGQGTQVTVSS	low polyreactivity
QVQLVESGGGLVQAGGSLRLSCAASGRILGRKAMGWYRHAPGKEREYVAAISSGGNTYYADSVKGRFTISRDNAKNTVYLQMKSLKPEDTAVYYCNADPDTYVSTITHDSWGQGTQVTVSS	low polyreactivity
QVQLVESGGGLVQAGGSLRLSCAASGYIFGQYAMGWYRQAPGKERELVADITRGGDTYYADSVKGRFTISRDNAKNTVYLQMNSLKPEDTAVYYCAAEQGRTSYRYYYWGQGTQVTVSS	high polyreactivity
QVQIVESGGGLVQAGGSLRLSCAASGFTFVYYVMGWYRPAPGKERELVAAINSGGGSTYYADSVKGRFTISRDKAKNTVYLQMKSLKPEDTAVYYCNARVRVRLGRNWSSYYYWGQGTQVTVSS	high polyreactivity

Next:
Exercise: Entry QVQLVESGGGLVQAGGSLRLSCAASGITFSANAMGWYRQAPGKERELVATITWSGGSTYYADSVKGRFTISRDNAKNTVYLQMNSLKPEDTAVYYCNARSYDEYPYYSYNYWGQGTQVTVSS : reported polyreactivity (PSR sort gate) = ?
Key: low polyreactivity
